Numbers sourced from PubChem BioAssay AID743334.

Consider the following molecules and their measured max activity readings.
# assay_procedure: statin-free myotube ATP level counter-assay – cell-based, no simvastatin, luminescence, dry powder, counter-screen for statin myotoxicity suppressor project, dose response (AID 743334)
# stated_conditions: C2C12 myotubes ATP, CellTiter-Glo luminescence, 48 h; hits give high values

# cpd_smiles, max activity / %
rows = [
    ("CC(C)=CCC/C(C)=C/CC/C(C)=C/CC/C(C)=C/CO", 1.13),
    ("COc1ccc(S(=O)(=O)Nc2ccc3c(c2)CC(=O)N([C@H](C)CO)C[C@@H](C)[C@H](CN(C)CC2CCCCC2)O3)cc1", -10.2),
    ("N#C[C@@H]1[C@H](c2ccc(-c3cccc(F)c3)cc2)[C@H](CO)N1C(=O)NC1CCCC1", -18.6),
    ("N#C[C@@H]1[C@@H](c2ccccc2-c2cccc(F)c2)[C@H](CO)N1C(=O)NC1CCCC1", 11.6),
    ("COc1ccc(C#Cc2cnc3c(c2)C(=O)N([C@H](C)CO)C[C@H](C)[C@@H](CN(C)C(=O)Nc2cccc(OC)c2)O3)cc1", 8),
    ("C[C@@H]1CN([C@H](C)CO)C(=O)c2cccc(NC(=O)c3nc4ccccc4s3)c2O[C@@H]1CN(C)Cc1ccc(C(=O)Nc2ccccc2N)cc1", -20.8),
    ("N#C[C@@H]1[C@@H](c2ccc(C3=CCCCC3)cc2)[C@H](CO)N1C(=O)NC1CCCC1", -9.58),
    ("CCCNC(=O)N1[C@H](CO)[C@H](c2ccccc2)[C@@H]1C#N", -8.33),
    ("CCS(=O)(=O)N1[C@H](C#N)[C@@H](c2ccc(-c3cccc(F)c3)cc2)[C@@H]1CO", -8.9),
    ("C[C@H]1CN([C@@H](C)CO)C(=O)Cc2cc(NC(=O)CCCCCC(=O)Nc3ccccc3N)ccc2O[C@H]1CN(C)Cc1ccc(Oc2ccccc2)cc1", -10.2),
    ("C[C@H]1CN([C@@H](C)CO)C(=O)Cc2cc(NC(=O)Nc3cccc4ccccc34)ccc2O[C@H]1CN(C)Cc1ccc(C(=O)Nc2ccccc2N)cc1", 10.8),
    ("C[C@@H]1CN([C@H](C)CO)C(=O)c2cccc(NC(=O)Nc3ccc4c(c3)OCO4)c2O[C@H]1CN(C)Cc1ccc(C(=O)Nc2ccccc2N)cc1", -9.22),
    ("C[C@H]1CN([C@@H](C)CO)S(=O)(=O)c2ccc(C#CC3CC3)cc2O[C@H]1CN(C)C(=O)Nc1cc(F)ccc1F", -12.1),
    ("COc1ccc(C#Cc2cnc3c(c2)C(=O)N([C@H](C)CO)C[C@H](C)[C@H](CN(C)Cc2ccccc2)O3)cc1OC", 15.6),
    ("CCCNC(=O)N1[C@H](C#N)[C@@H](c2ccc(C3=CCCCC3)cc2)[C@@H]1CO", -7.65),
    ("N#C[C@H]1[C@H](c2ccc(C#Cc3ccc(F)cc3)cc2)[C@H](CO)N1c1nc(-c2ccccc2)cs1", 9.97),
]
